Source listed as PubChem BioAssay AID1963873.

test system: 276233-004-R-J1-PDC KRAS spheroids with HUVEC/MSC, viability; assay: Anticancer human tumor 276233-004-R-J1-PDC patient-derived colon adenocarcinoma cell line growth inhibition [KRAS2]; conditions: second compound 0.1 µM; first compound 1 µM; stronger effect = lower value;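 further: cells exposed to agents for seven days before viability read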
Yes if viability, T/C is below 90%. No if not; exact matches included in No.

[ask] viability, T/C under 90%? Item: CCN1CCN(Cc2ccc(Nc3ncc(F)c(-c4cc(F)c5nc(C)n(C(C)C)c5c4)n3)nc2)CC1 + C=CC(=O)N1CCN(c2nc(=O)n(-c3c(C)ccnc3C(C)C)c3nc(-c4c(O)cccc4F)c(F)cc23)C(C)C1
[reply] No

[ask] viability, T/C under 90%? Item: CC1OCC2(CCN(c3cnc(Sc4ccnc(N)c4Cl)c(N)n3)CC2)C1N (centres undefined) + C=CC(=O)N1CCN(c2nc(OCC3CCCN3C)nc3c2CCN(c2cccc4cccc(C)c24)C3)CC1CC#N
[reply] Yes

[ask] viability, T/C under 90%? Item: CC1(C)CCC(CN2CCN(c3ccc(C(=O)NS(=O)(=O)c4ccc(NCC5CCOCC5)c([N+](=O)[O-])c4)c(Oc4cnc5[nH]ccc5c4)c3)CC2)=C(c2ccc(Cl)cc2)C1 + C=CC(=O)N1CCN(c2nc(OCC3CCCN3C)nc3c2CCN(c2cccc4cccc(C)c24)C3)CC1CC#N
[reply] Yes

[ask] viability, T/C under 90%? Item: CC1(C)CCC(CN2CCN(c3ccc(C(=O)NS(=O)(=O)c4ccc(NCC5CCOCC5)c([N+](=O)[O-])c4)c(Oc4cnc5[nH]ccc5c4)c3)CC2)=C(c2ccc(Cl)cc2)C1 + C=CC(=O)N1CCN(c2nc(=O)n(-c3c(C)ccnc3C(C)C)c3nc(-c4c(O)cccc4F)c(F)cc23)C(C)C1
[reply] No

[ask] viability, T/C under 90%? Item: COc1cc2nccc(Oc3ccc(NC(=O)C4(C(=O)Nc5ccc(F)cc5)CC4)cc3)c2cc1OC + C=CC(=O)N1CCN(c2nc(OCC3CCCN3C)nc3c2CCN(c2cccc4cccc(C)c24)C3)CC1CC#N
[reply] No

[ask] viability, T/C under 90%? Item: CCN1CCN(Cc2ccc(Nc3ncc(F)c(-c4cc(F)c5nc(C)n(C(C)C)c5c4)n3)nc2)CC1 + CNCc1ccccc1-c1csc(C(C)Nc2nc(C)nc3cc(OC)c(OC)cc23)c1
[reply] No

[ask] viability, T/C under 90%? Item: CC(C)NCC(C(=O)N1CCN(c2ncnc3c2C(C)CC3O)CC1)c1ccc(Cl)cc1 (centres undefined) + CC1OCC2(CCN(c3cnc(Sc4ccnc(N)c4Cl)c(N)n3)CC2)C1N
[reply] Yes

[ask] viability, T/C under 90%? Item: Cn1nccc1Nc1nccc(-c2cc3c(s2)C(C)(C)N(CCN2CCOCC2)C3=O)n1 + CC1OCC2(CCN(c3cnc(Sc4ccnc(N)c4Cl)c(N)n3)CC2)C1N
[reply] Yes
